Reference source for all entries: PubChem BioAssay (NCI)

system: A498 renal; assay: NCI tumour cell line growth inhibition, 48 h
recorded metric: TGI (µM)

- molecule: "O=c1c2cc(I)ccc2nc(SCc2nncs2)n1Cc1ccccc1"
  recorded metric: "TGI"
  value unit: "µM"
  value qualifier: "="
  observed measurement: 65.1
- molecule: "Cc1cc(S(=O)(=O)Nc2n[nH]c(Nc3ccc(Cl)cc3)n2)c(S)cc1Cl"
  recorded metric: "TGI"
  value unit: "µM"
  value qualifier: ">"
  observed measurement: 100
- molecule: "Cc1ccc(S(=O)(=O)NC(=O)NCCc2cnc[nH]2)cc1"
  recorded metric: "TGI"
  value unit: "µM"
  value qualifier: ">"
  observed measurement: 100
- molecule: "COc1ccc(C2CC(c3cccc(Nc4ccnc5cc(Cl)ccc45)c3)=NN2C=O)cc1 (stereo not given)"
  recorded metric: "TGI"
  value unit: "µM"
  value qualifier: "="
  observed measurement: 4.2
- molecule: "O=c1[nH]c2nnc(COc3ccc(Cl)cc3Cl)n2nc1Cc1ccccc1"
  recorded metric: "TGI"
  value unit: "µM"
  value qualifier: "="
  observed measurement: 82
- molecule: "CC(C)(C)c1ccc(S(=O)(=O)Oc2ccc3c4c(c(=O)oc3c2)CCCCC4)cc1"
  recorded metric: "TGI"
  value unit: "µM"
  value qualifier: "="
  observed measurement: 36.3
- molecule: "COC[C@@H](N=C1NC(=O)/C(=C/c2ccc3ncccc3c2)S1)c1ccccc1"
  recorded metric: "TGI"
  value unit: "µM"
  value qualifier: "="
  observed measurement: 12.5
- molecule: "CC(C)=CCC[C@]1(C)C=Cc2c(O)c3c(c(CC=C(C)C)c2O1)O[C@]12C(=C[C@@H]4CC1C(C)(C)O[C@@]2(C/C=C(/C)C(=O)O)C4=O)C3=O"
  recorded metric: "TGI"
  value unit: "µM"
  value qualifier: "="
  observed measurement: 3.98
- molecule: "O=C(CSc1nc2ccc([N+](=O)[O-])cc2s1)c1ccc2ccccc2c1"
  recorded metric: "TGI"
  value unit: "µM"
  value qualifier: ">"
  observed measurement: 100
- molecule: "CCCCCCCCCCCCCCCCCc1cccc(OCOCCOC)c1C(=O)O"
  recorded metric: "TGI"
  value unit: "µM"
  value qualifier: "="
  observed measurement: 32.2
- molecule: "CNNC1=NS(=O)(=O)c2cc(C#N)c(Cl)cc2S1"
  recorded metric: "TGI"
  value unit: "µM"
  value qualifier: ">"
  observed measurement: 10
- molecule: "CC(C)(CN1CCCCC1)C(=O)/C=C/c1ccc(/C=C/C(=O)C(C)(C)CN2CCCCC2)cc1"
  recorded metric: "TGI"
  value unit: "µM"
  value qualifier: "="
  observed measurement: 3.08
- molecule: "Fc1cc2[nH]ncc2c2c3c(c(-c4cn[nH]c4C(F)(F)F)nc12)CCCC3"
  recorded metric: "TGI"
  value unit: "µM"
  value qualifier: "="
  observed measurement: 3.09
- molecule: "O=C(Oc1cccc2cccnc12)c1cc2c(cc1Cl)SC(N(c1ccc(F)cc1)S(=O)(=O)c1ccc(Br)s1)=NS2(=O)=O"
  recorded metric: "TGI"
  value unit: "µM"
  value qualifier: ">"
  observed measurement: 100
- molecule: "CCCCCCCCCCCCOC1C(CNC(=O)C2OC3OC(C)(C)OC3C2NC(=O)Nc2ccc(CC(=O)OC)cc2)OC2OC(C)(C)OC21 (stereo not given)"
  recorded metric: "TGI"
  value unit: "µM"
  value qualifier: ">"
  observed measurement: 100
- molecule: "CS(=O)(=O)Nc1cncc(-c2ccc3ncnc(Nc4ccc(F)c(Cl)c4)c3c2)c1"
  recorded metric: "TGI"
  value unit: "µM"
  value qualifier: "="
  observed measurement: 3.2
- molecule: "CC(=O)C1=C(C)N2C(=NC3=C(CCc4ccccc43)C2c2ccc(F)cc2)S1 (stereo not given)"
  recorded metric: "TGI"
  value unit: "µM"
  value qualifier: ">"
  observed measurement: 100
- molecule: "CC1=Nc2ccccc2S/C1=C(/C)NNS(=O)(=O)c1ccc(C)cc1"
  recorded metric: "TGI"
  value unit: "µM"
  value qualifier: ">"
  observed measurement: 100
- molecule: "N#Cc1cccc2c1Nc1ccccc1S2"
  recorded metric: "TGI"
  value unit: "µM"
  value qualifier: ">"
  observed measurement: 100
- molecule: "CCOC(=O)c1nc2ccc(C(F)(F)F)cc2nc1NCc1ccc(OC)cc1"
  recorded metric: "TGI"
  value unit: "µM"
  value qualifier: ">"
  observed measurement: 100

* * *

test system: CAKI-1 renal; experiment: NCI tumour cell line growth inhibition, 48 h
Starred links: 1 amine or outer side, 2 acyl side, 3 side chain; linkers in the order of their positions; H or OH if unused. Positions of bridges follow the written chain, without caps; N, C: chain ends. Non-standard residues stand in square brackets, D forms with d. Residues, ends and D or L forms follow the SMILES beside them. Chains are numbered I, II in the order given. Actinocin(1to9) = Cc1c2oc3c(C)ccc(C(=O)[*:2])c3nc-2c(C(=O)[*:1])c(N)c1=O; NMeV = CN[CH](C(=O)O)C(C)C; Sar = CNCC(=O)O
Entries annotated with measured TGI
recorded metric: TGI

- compound: "O=c1ccn(CC2(CO)CCC2)c(=O)[nH]1"
  system name: "CAKI-1 renal"
  observed measurement: "> 100 µM"
- compound: "CCOC(=O)c1nc2ccc(C(F)(F)F)cc2nc1NCc1ccc(OC)cc1"
  system name: "CAKI-1 renal"
  observed measurement: "> 100 µM"
- compound: "CC1=CC(=O)CC(C)(C)C1/C=C/C(C)=C/C=C/C(C)=C/C=C/C=C(C)/C=C/C=C(C)/C=C/C1C(C)=CC(=O)CC1(C)C (centres undefined)"
  system name: "CAKI-1 renal"
  observed measurement: "> 100 µM"
- compound: "O=C(NC1(c2cc3ccccc3s2)CCCCC1)C1CCC1"
  system name: "CAKI-1 renal"
  observed measurement: "> 100 µM"
- compound: "COc1ccccc1NC(=S)NN=C(C)c1cccc(C(C)=NNC(=S)Nc2ccccc2OC)n1"
  system name: "CAKI-1 renal"
  observed measurement: "> 100 µM"
- compound: "CCN1C(=S)N(c2ccccc2)C2NC(=S)N(/N=C/C=C/c3ccccc3OC)C21 (centres undefined)"
  system name: "CAKI-1 renal"
  observed measurement: "> 100 µM"
- compound: "C=CCN(c1cc(OCc2ccccc2)c2[nH]cc(C)c2c1)S(C)(=O)=O"
  system name: "CAKI-1 renal"
  observed measurement: "> 100 µM"
- compound: "Nc1nccc(-c2c(-c3ccc(F)cc3)ncn2C2CCNCC2)n1"
  system name: "CAKI-1 renal"
  observed measurement: "> 25 µM"
- compound: "N#Cc1cc(C#N)c(N)nc1N"
  system name: "CAKI-1 renal"
  observed measurement: "> 100 µM"
- compound: "COc1cc(C2Cc3ncccc3-c3[nH]c(=O)c4cccnc4c32)cc(OC)c1OC (centres undefined)"
  system name: "CAKI-1 renal"
  observed measurement: "> 100 µM"
- compound: "CC(C)(C)OC(=O)n1c2ccccc2c2c(=O)nc(N3CCCCC3)sc21"
  system name: "CAKI-1 renal"
  observed measurement: "> 100 µM"
- compound: "O=C1NC(=O)C(F)(n2cc(F)c(=O)[nH]c2=O)C(O)N1 (centres undefined)"
  system name: "CAKI-1 renal"
  observed measurement: "> 10 µM"
- compound: "CC(C)(O)[C@@H]1CC[C@@]2(C)CCCC(O)C2(O)C1 (some centres undefined)"
  system name: "CAKI-1 renal"
  observed measurement: "> 100 µM"
- compound: "CCCCCN(CCCCC)C(=O)[C@@H](CCC(=O)O)NC(=O)c1cc2ccccc2[nH]1"
  system name: "CAKI-1 renal"
  observed measurement: "67.6 µM"
- compound: "CCCNC(=S)/N=C/c1c(O)cc(C)oc1=O"
  system name: "CAKI-1 renal"
  observed measurement: "> 100 µM"
- compound: "COP(=O)(OC)C(=O)N1N(c2ccc([N+](=O)[O-])cc2)C(=O)C(C)NC1(NNc1ccc([N+](=O)[O-])cc1)P(=O)(OC)OC (centres undefined)"
  system name: "CAKI-1 renal"
  observed measurement: "> 100 µM"
- compound: "CCC(C)C1NC(=O)C(NC(=O)c2c3nc4c(C(=O)NC5C(=O)NC(C(C)CC)C(=O)N6CCCC6C(=O)N(C)CC(=O)N(C)C(C(C)C)C(=O)OC5C)ccc(C)c4oc-3c(C)c(=O)c2N)C(C)OC(=O)C(C(C)C)N(C)C(=O)CN(C)C(=O)C2CCCN2C1=O (centres undefined) (I: TIP[Sar][NMeV] / II: TIP[Sar][NMeV]; ester I:1-I:C, II:1-II:C; linker I:N-II:N via Actinocin(1to9); configuration not given here)"
  system name: "CAKI-1 renal"
  observed measurement: "0.0861 µM"
- compound: "CCOC(=O)c1cc(C(=O)c2cc(OC)c(OC)c(OC)c2)n2ncccc12"
  system name: "CAKI-1 renal"
  observed measurement: "> 100 µM"
- compound: "COc1ccccc1NC(=S)N/N=C/c1c(C)n(C)n(-c2ccccc2)c1=O"
  system name: "CAKI-1 renal"
  observed measurement: "> 100 µM"
- compound: "CCc1ccccc1N=NC(=O)NNc1ccccc1CC"
  system name: "CAKI-1 renal"
  observed measurement: "95.2 µM"
- compound: "O=C(O)c1ccc(C(=O)c2ccccc2C(=O)O)cc1C(=O)O"
  system name: "CAKI-1 renal"
  observed measurement: "> 100 µM"
- compound: "C#C[C@]1(O)CC[C@H]2[C@@H]3CCC4=C/C(=N/OCCN(C)C)CC[C@]4(C)[C@H]3CC[C@@]21C"
  system name: "CAKI-1 renal"
  observed measurement: "> 100 µM"
- compound: "COC(=O)C(N)CCCC(N)C(=O)NC(C)C(=O)NC(CCC(=O)NCCNCCNc1c2ccccc2nc2cccc([N+](=O)[O-])c12)C(N)=O (centres undefined)"
  system name: "CAKI-1 renal"
  observed measurement: "> 100 µM"
- compound: "CC(C)(O)/C=C\\P(=O)(O)O"
  system name: "CAKI-1 renal"
  observed measurement: "> 100 µM"
- compound: "O=c1[nH]c2ccccc2c2ccccc12"
  system name: "CAKI-1 renal"
  observed measurement: "> 100 µM"
- compound: "CN(C)c1ccc(C=Nc2ccc(Oc3ccc(Cl)cc3)c(Cl)c2)cc1"
  system name: "CAKI-1 renal"
  observed measurement: "67.2 µM"
- compound: "CC(C)OP(=O)(OC(C)C)/C(Cl)=N/Nc1ccc([N+](=O)[O-])cc1"
  system name: "CAKI-1 renal"
  observed measurement: "> 100 µM"
- compound: "COC(=O)C1CCC(=O)N1CN(C(C)=O)c1ccccc1Cl (centres undefined)"
  system name: "CAKI-1 renal"
  observed measurement: "> 100 µM"
- compound: "O=c1ccc2nc3cc(Br)ccc3sc-2c1"
  system name: "CAKI-1 renal"
  observed measurement: "> 100 µM"
- compound: "CCOC(=O)c1ccc(NC(=O)Nc2nncs2)cc1"
  system name: "CAKI-1 renal"
  observed measurement: "> 47 µM"
- compound: "CCN(Cc1ccc(C)cc1)c1ccc(CO)c(Cl)c1"
  system name: "CAKI-1 renal"
  observed measurement: "9.27 µM"
- compound: "CC(Nc1ncc2c(n1)-c1ccccc1OC2)C(=O)O (centres undefined)"
  system name: "CAKI-1 renal"
  observed measurement: "> 100 µM"
- compound: "Fc1cccc(COc2ccc(Nc3ncnc4sc(-c5cccs5)cc34)cc2Cl)c1"
  system name: "CAKI-1 renal"
  observed measurement: "> 25 µM"
- compound: "NC(Cc1ccc(OCc2ccccc2)cn1)C(=O)O (centres undefined)"
  system name: "CAKI-1 renal"
  observed measurement: "> 100 µM"
- compound: "CC1=Nc2ccccc2S/C1=C(/C)NNS(=O)(=O)c1ccc(C)cc1"
  system name: "CAKI-1 renal"
  observed measurement: "> 100 µM"
- compound: "CC(=O)c1ccc2c(c1)c1cc(C(C)=O)ccc1n2CCNC(C)C"
  system name: "CAKI-1 renal"
  observed measurement: "10.5 µM"
- compound: "Cc1c(N2C(=O)/C(=C/c3ccc(Cl)cc3)N=C2c2ccccc2)c(=O)n(-c2ccccc2)n1C"
  system name: "CAKI-1 renal"
  observed measurement: "> 100 µM"
- compound: "CCC(C)CCOC(=O)c1ccc(N=Cc2ccc(C=Nc3ccc(C(=O)OCCC(C)CC)cc3)cc2)cc1 (centres undefined)"
  system name: "CAKI-1 renal"
  observed measurement: "> 100 µM"
- compound: "COc1cc2oc(=O)ccc2cc1C(=O)CC(C)C"
  system name: "CAKI-1 renal"
  observed measurement: "42.8 µM"
